assay: Caco-2 membrane permeability, improved method as used in the following Examples (96-well, 20 to 24 h preincubation); format: in vitro ADME; conditions: human, Caco-2, Caco-2
Positions of bridges follow the written chain, without caps; N, C: chain ends. Non-standard residues stand in square brackets, D forms with d. Residues, ends and D or L forms follow the SMILES beside them. *: point of attachment. NMePhe(3-Cl) = CN[C@@H](Cc1cccc(Cl)c1)C(=O)O; hhPhe = N[C@@H](CCCc1ccccc1)C(=O)O; NMeF = CN[C@@H](Cc1ccccc1)C(=O)O; Butyl(3-Me,3-OH) = CC(C)(O)CC*; NMeL = CN[C@@H](CC(C)C)C(=O)O; NMeV = CN[C@H](C(=O)O)C(C)C; NMeA = CN[C@@H](C)C(=O)O; Piperidide = C1CCN(*)CC1; Sar = CNCC(=O)O
Provide the reported Papp A→B at 180 min of each item.
One number for each entry, in ×10⁻⁶ cm/s.

COMPOUND	RESULT_UNITS	Papp A→B at 180 min
CC(C)C[C@H]1C(=O)N[C@H](C(=O)N2CCCCC2)CC(=O)N(C)[C@@H](C)C(=O)N[C@@H](CCCc2ccccc2)C(=O)N(C)[C@@H](CC(C)C)C(=O)N(C)[C@@H](Cc2ccccc2)C(=O)N[C@@H](C)C(=O)N(C)[C@@H](Cc2ccccc2)C(=O)N(C)[C@@H](C(C)C)C(=O)N[C@@H]([C@@H](C)O)C(=O)N(C)CC(=O)N1C [pd365] ([NMeA][hhPhe][NMeL][NMeF]A[NMeF][NMeV]T[Sar][NMeL]D-Piperidide; lactam N-11)	×10⁻⁶ cm/s	1.5

In the following, a different compound is considered.
// Papp A→B at 180 min lookup, key: CC(C)C[C@@H]1NC(=O)[C@H](Cc2ccccc2)N(C)C(=O)[C@@H](C(C)C)NC(=O)C[C@@H](C(=O)N2CCCCC2)NC(=O)[C@H](CC(C)C)N(C)C(=O)[C@H](Cc2cccc(Cl)c2)N(C)C(=O)[C@H](COCCC(C)(C)O)NC(=O)[C@H](CC(C)C)N(C)C(=O)CN(C)C(=O)[C@H]([C@@H](C)O)NC(=O)[C@H](C(C)C)N(C)C1=O [pd434] ([dV][NMeF]L[NMeV]T[Sar][NMeL]S(Butyl(3-Me,3-OH))[NMePhe(3-Cl)][NMeL]D-Piperidide; lactam N-11)
1.7
